- system-name: human alpha2C receptors (Homo sapiens, UniProt P18825)
- Sequence (P18825 whole entry): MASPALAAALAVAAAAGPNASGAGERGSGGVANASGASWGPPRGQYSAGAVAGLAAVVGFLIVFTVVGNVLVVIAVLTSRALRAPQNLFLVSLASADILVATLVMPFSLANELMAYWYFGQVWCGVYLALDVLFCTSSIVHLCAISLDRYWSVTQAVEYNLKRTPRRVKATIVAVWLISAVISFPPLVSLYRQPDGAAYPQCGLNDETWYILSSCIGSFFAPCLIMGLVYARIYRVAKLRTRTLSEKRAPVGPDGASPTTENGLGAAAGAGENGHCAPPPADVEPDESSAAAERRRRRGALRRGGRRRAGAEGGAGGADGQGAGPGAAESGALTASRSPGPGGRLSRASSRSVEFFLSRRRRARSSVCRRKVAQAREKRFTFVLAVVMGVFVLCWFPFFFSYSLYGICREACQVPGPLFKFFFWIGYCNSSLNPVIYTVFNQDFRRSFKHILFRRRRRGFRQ
- assay-explanation: Determination of alpha2C antagonistic activity in vitro (FLIPR calcium assay, CHO cells)
- experimental-conditions: antagonism of adrenaline stimulation; CHO cells stably transfected with human alpha2C receptor and Gα16; intracellular calcium (FLIPR); read-out: Alpha 2C Adrenaline IC50
property: IC50

Examples with their reported IC50 follow.
>>> obs_value("c1ccc2c(c1)OC[C@H](CN1CCN(c3nsnc3Nc3ccncn3)CC1)O2")
"< 0.01 nM"
>>> obs_value("NC(=O)c1nsnc1N1CCN(C[C@H]2COc3ccccc3O2)CC1")
"166 nM"

Could you now consider this next compound?
Form: compound = Cc1c(N2CC(C)(C)N(C)C2=O)c(N2CCN(C[C@H]3COc4ccccc4O3)CC2)nn1C ; IC50 = < 0.01 nM

The origin of these recorded values is patent US10774074B2.
